assay: ATG_CMV_CIS: Attagene CIS-FACTORIAL HepG2 Assay for human CMV (Internal Marker) (AID 2282928); settings: HepG2 CMV promoter reporter, transcription factor profiling; actives raise or lower the signal;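 also: endpoint acts as a background internal control marker rather than a target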
Calls of active or inactive are those of the source. The calls were made as follows: active = hit-call score of the fitted dose curve at least 0.9, where 1 is the maximum; inactive = score below 0.9.
recorded_metric: outcome

// solved cases for outcome follow
compound	outcome
O=S(=O)(O)NC1CCCCC1	inactive
Cc1cccc(Nc2ccccc2C(=O)O)c1C	inactive
C=CC(=O)NCOCC(C)C	inactive
Cc1cccc(C)c1C	inactive

Provide outcome values for the following items, in order.
1. CC1CCC2CC1C2(C)C (stereo not drawn)
2. O=C1CCCCCCCCCCOCCCCO1

["inactive", "inactive"]

Provide each entry's outcome from the list below.
1. C=CC(C)(C)O
2. O=[N+]([O-])c1cc(C(F)(F)F)ccc1Cl

1. inactive
2. inactive
